Test system: UACC-257 melanoma
procedure text: NCI-60 one-dose screen, 48 h (100 = growth as untreated, 0 = no growth, -100 = all killed)
settings: 10 µM unless noted
About 83,000 compounds went through this panel and 20% of them were active in at least one assay; those are over-represented in the sample as a whole.
Please go through the items and note down their growth.
Respond with the bare value in %.

Qu. Would you kindly share the measured growth for CCOC(=O)c1cn2ncnc(Oc3ccc(NC(=O)NCCN4CCOCC4)c(Cl)c3)c2c1C ?
Ans. 95.8

Qu. Would you kindly share the measured growth for O=c1[nH]c2c(ccc3cnccc32)c2c1CCC2 ?
Ans. 6.08

Qu. Would you kindly share the measured growth for COc1cc(OCc2cccc(-c3ccc(C(O)c4nccs4)cc3)c2C)cc(OC)c1CNCCNC(C)=O (stereo unspecified) ?
Ans. 99

Qu. Would you kindly share the measured growth for C(=N/Nc1ncnc2nc[nH]c12)/c1ccccn1 ?
Ans. 51.5

Qu. Would you kindly share the measured growth for COc1cc(CCC[P+](c2ccccc2)(c2ccccc2)c2ccccc2)c(OC)c2c1OCO2 ?
Ans. 5.75

Qu. Would you kindly share the measured growth for Cc1ccc(-c2nc(N3CCN(C(=O)Nc4ccc(Cl)c(C(F)(F)F)c4)CC3)c3ccccc3n2)cc1 ?
Ans. 90.1

Qu. Would you kindly share the measured growth for COc1cc(C(=O)N/N=C/c2cc3cc(OCc4ccccc4)ccc3nc2OC)cc(OC)c1OC ?
Ans. 79.2

Qu. Would you kindly share the measured growth for Fc1cc(-c2nnc3n2NC(=Nc2ccc(Cl)cc2)CS3)c(Cl)cc1Cl ?
Ans. 92.5

Qu. Would you kindly share the measured growth for COC(=O)Nc1ccc(-c2nc(-c3cccc(OC)c3)c(-c3ccnc(Br)c3)[nH]2)cc1 ?
Ans. 71.7

Qu. Would you kindly share the measured growth for COc1ccc(-c2c(C(=O)NS(C)(=O)=O)n(Cc3cccc(C(F)(F)F)c3)c3ccccc23)cc1 ?
Ans. 95.2

Qu. Would you kindly share the measured growth for COc1c(B(O)O)cc(C)cc1-c1nc2ccc3[nH]ncc3c2c2c1CCCC2 ?
Ans. 102

Qu. Would you kindly share the measured growth for CN1CCN(c2ccc(-c3ccc4ncc(C#N)c(Nc5ccc(F)c(Cl)c5)c4c3)cc2)CC1 ?
Ans. -0.414

Qu. Would you kindly share the measured growth for CNC(C)[C@H]1CCC2C3CCC4C[C@@H](N(C)C(=O)c5ccccc5)CC[C@]4(C)C3CC[C@@]21C (stereo partly specified) ?
Ans. -12.6

Qu. Would you kindly share the measured growth for CCCCCCCCCCCCCCCCCCOc1ccccc1CC(=O)OCC[N+](CC)(CC)CC ?
Ans. 48.1

Qu. Would you kindly share the measured growth for COc1cccc2c(=O)c3c(sc12)c(N1CCNCC1)nc1ccccc13 ?
Ans. 101

Qu. Would you kindly share the measured growth for Cc1oc2nc[nH]c(=O)c2c1C(=O)/C=C/c1ccc(Br)cc1 ?
Ans. 32.7

Qu. Would you kindly share the measured growth for CC1(C)C2CC1C1(/C=N/NC(N)=S)C(C2)C(C#N)(C#N)C1(C#N)C#N (stereo unspecified) ?
Ans. 79.9

Qu. Would you kindly share the measured growth for O=C(CCCCCCSc1nc(-c2ccccc2)cc(-c2ccccc2)n1)NO ?
Ans. 29

Qu. Would you kindly share the measured growth for CC1Cc2c(ncn3c(-c4ccc(F)cc4)nnc23)N(C)c2ccccc21 (stereo unspecified) ?
Ans. 69.7

Qu. Would you kindly share the measured growth for C/C(=C(/c1ccccc1)c1ccc(N2C(=O)c3cccc4c(N5CCN(C)CC5)ccc(c34)C2=O)cc1)c1ccccc1 ?
Ans. 79.8

Qu. Would you kindly share the measured growth for Nc1ccccc1-c1cc2c(c3c1[nH]c1ccccc13)CCCCC2 ?
Ans. 105

Qu. Would you kindly share the measured growth for COc1ccc(C(Cc2ccccc2)NCCN2CCOCC2)cc1 (stereo unspecified) ?
Ans. 109

Qu. Would you kindly share the measured growth for C/C(=N/NC(N)=S)c1sc(Nc2cccc(Cl)c2)nc1C ?
Ans. 101

Qu. Would you kindly share the measured growth for NC1=C(c2nn[nH]n2)C(c2ccccc2Cl)c2ccc3ccccc3c2O1 (stereo unspecified) ?
Ans. 84.7

Qu. Would you kindly share the measured growth for CNc1nc2c(s1)C(c1cc(F)ccc1F)CC(=O)N2 (stereo unspecified) ?
Ans. 86.7

Qu. Would you kindly share the measured growth for Cc1cc(-c2cc(C)c(N)cc2C)c(C)cc1N ?
Ans. 90.5

Qu. Would you kindly share the measured growth for O=c1c2cc(F)cc(Cl)c2sc2c(NCCCNCCO)nc3ccccc3c12 ?
Ans. 109

Qu. Would you kindly share the measured growth for O=C(CCN1C(=O)/C(=C/c2ccc(O)cc2)SC1=S)Nc1ccc(Cl)cc1 ?
Ans. 101

Qu. Would you kindly share the measured growth for O=C1CSC(c2c(Cl)cccc2Cl)N1c1nc(Cl)cc(=O)[nH]1 (stereo unspecified) ?
Ans. 99.6

Qu. Would you kindly share the measured growth for CC1=C(C)C(=O)C(Nc2cccc(C(=O)OC(C)(C)C)c2)=C(Br)C1=O ?
Ans. 87.3

Qu. Would you kindly share the measured growth for COc1ccc(-c2nnc(COc3ccc(Cl)cc3Cl)o2)cc1OC ?
Ans. 37.7

Qu. Would you kindly share the measured growth for CNC(=O)c1cc(-n2ccc3cc(NC(=O)c4ccc(N5CCOCC5)c(C(F)(F)F)c4)ccc32)ccn1 ?
Ans. 84.3

Qu. Would you kindly share the measured growth for N/C(=N\c1nc2ccccc2s1)NC(=O)Nc1cccc2ccccc12 ?
Ans. 67.4

Qu. Would you kindly share the measured growth for COc1ccc(N)c(N)c1 ?
Ans. 114

Qu. Would you kindly share the measured growth for CN1CCN(c2ccc(-c3cc4c(Nc5ccc(F)c(Cl)c5)ncnn4c3)cc2)CC1 ?
Ans. 69.2

Qu. Would you kindly share the measured growth for O=C1NC(=O)C(c2ccccc2)(c2ccccc2)N1Cc1cn(-c2c3ccccc3nc3ccccc23)nn1 ?
Ans. 89.1

Qu. Would you kindly share the measured growth for C=C(C)[C@@H]1CC[C@]2(N=C=O)CC[C@]3(C)[C@H](CC[C@@H]4[C@@]5(C)Cc6c([nH]c7ccccc67)C(C)(C)[C@@H]5CC[C@]43C)[C@@H]12 ?
Ans. 109

Qu. Would you kindly share the measured growth for c1ccc(OCc2nnc(-c3ccc(Oc4ccccc4)cc3)o2)cc1 ?
Ans. 109

Qu. Would you kindly share the measured growth for CCCSc1nc2ccc(C)cc2cc1/C=[N+](\[O-])c1ccccc1 ?
Ans. 63.3

Qu. Would you kindly share the measured growth for CCOc1cccc(NC2=C(Br)C(=O)C(C)=C(C)C2=O)c1 ?
Ans. 68

Qu. Would you kindly share the measured growth for C/C(=C\C(=O)c1ccc(Cl)cc1)c1ccc(Cl)cc1 ?
Ans. 98.4
